Reported shrunken log2 fold change is given for each of the following sequences.
# Tested on: Escherichia coli TOP10
# Assay text: shrunken log2 fold change of peptide-encoding DNA abundance (4.5 h post-induction vs induction); higher = less antimicrobial activity (less host growth inhibition)
# Test context: time post-induction: 4.5 h; library: site-saturation at positions 5, 18, 19, 20
Parameter measured: shrunken log2 fold change

INSERT INTO assay_data (item_sequence, recorded_measurement) VALUES
  ('RRIRGRPPRLPRPRPRPIFHPRP', 0.249),
  ('RRIRGRPPRLPRPRPRPQSAPRP', 0.629),
  ('RRIRKRPPRLPRPRPRPVDPPRP', 0.417),
  ('RRIRWRPPRLPRPRPRPQLWPRP', 1.02),
  ('RRIRNRPPRLPRPRPRPMKWPRP', 0.0456),
  ('RRIRARPPRLPRPRPRPNYFPRP', -0.251),
  ('RRIRCRPPRLPRPRPRPDEFPRP', -0.169),
  ('RRIRKRPPRLPRPRPRPQKCPRP', 0.00165),
  ('RRIRTRPPRLPRPRPRPVKVPRP', 0.00854),
  ('RRIRDRPPRLPRPRPRPSLNPRP', 0.138),
  ('RRIRYRPPRLPRPRPRPRLWPRP', 0.14),
  ('RRIRDRPPRLPRPRPRPCMTPRP', 0.33),
  ('RRIRWRPPRLPRPRPRPWRIPRP', -0.604),
  ('RRIRPRPPRLPRPRPRPYVLPRP', -0.519),
  ('RRIRYRPPRLPRPRPRPYYGPRP', -0.0846),
  ('RRIRRRPPRLPRPRPRPQMFPRP', -0.25),
  ('RRIRGRPPRLPRPRPRPAYKPRP', -0.202),
  ('RRIRYRPPRLPRPRPRPTFDPRP', -0.76),
  ('RRIRWRPPRLPRPRPRPNMVPRP', -0.0148),
  ('RRIRSRPPRLPRPRPRPPDHPRP', 0.202),
  ('RRIRDRPPRLPRPRPRPKKVPRP', 0.241),
  ('RRIRMRPPRLPRPRPRPYWWPRP', 0.0238),
  ('RRIRCRPPRLPRPRPRPGEFPRP', -0.179),
  ('RRIRVRPPRLPRPRPRPDSHPRP', -0.111),
  ('RRIRYRPPRLPRPRPRPWWDPRP', -0.266),
  ('RRIRDRPPRLPRPRPRPRYSPRP', -0.662),
  ('RRIRTRPPRLPRPRPRPPCRPRP', 0.121),
  ('RRIRERPPRLPRPRPRPQTSPRP', -0.37),
  ('RRIRVRPPRLPRPRPRPAGIPRP', 0.165),
  ('RRIRMRPPRLPRPRPRPQAYPRP', -0.0933),
  ('RRIRVRPPRLPRPRPRPSPNPRP', -0.271),
  ('RRIRSRPPRLPRPRPRPGIYPRP', -0.135),
  ('RRIRKRPPRLPRPRPRPMTQPRP', -0.0547),
  ('RRIRRRPPRLPRPRPRPFFGPRP', 0.159),
  ('RRIRFRPPRLPRPRPRPGEKPRP', 0.084),
  ('RRIRCRPPRLPRPRPRPDYEPRP', -0.373),
  ('RRIRERPPRLPRPRPRPIGRPRP', 0.0419),
  ('RRIRPRPPRLPRPRPRPMIHPRP', -0.696),
  ('RRIRERPPRLPRPRPRPGIAPRP', -0.183),
  ('RRIRDRPPRLPRPRPRPSALPRP', 0.162),
  ('RRIRRRPPRLPRPRPRPWWEPRP', 1.82),
  ('RRIRIRPPRLPRPRPRPWTKPRP', 0.0573),
  ('RRIRERPPRLPRPRPRPNYKPRP', -0.722),
  ('RRIRGRPPRLPRPRPRPHAIPRP', 0.46),
  ('RRIRKRPPRLPRPRPRPPQCPRP', 0.26),
  ('RRIRRRPPRLPRPRPRPPVQPRP', 0.366),
  ('RRIRQRPPRLPRPRPRPRRGPRP', 0.502),
  ('RRIRKRPPRLPRPRPRPYMGPRP', -0.00674),
  ('RRIRDRPPRLPRPRPRPGTGPRP', 0.304),
  ('RRIRARPPRLPRPRPRPQMWPRP', 0.102),
  ('RRIRRRPPRLPRPRPRPCPNPRP', -0.207),
  ('RRIRRRPPRLPRPRPRPTFCPRP', 0.0676),
  ('RRIRYRPPRLPRPRPRPTEFPRP', -0.465),
  ('RRIRVRPPRLPRPRPRPLWKPRP', -0.0321),
  ('RRIRARPPRLPRPRPRPTQDPRP', 0.974),
  ('RRIRKRPPRLPRPRPRPVIYPRP', -0.0353),
  ('RRIRWRPPRLPRPRPRPDTRPRP', -0.0523),
  ('RRIRRRPPRLPRPRPRPKTCPRP', 0.265),
  ('RRIRRRPPRLPRPRPRPPKWPRP', 0.628),
  ('RRIRVRPPRLPRPRPRPEGRPRP', 0.0493),
  ('RRIRERPPRLPRPRPRPECEPRP', 0.318),
  ('RRIRLRPPRLPRPRPRPLYGPRP', -0.249),
  ('RRIRARPPRLPRPRPRPFDEPRP', 0.194);

###

shrunken log2 fold change by entry:
# System: Escherichia coli TOP10
# Assay text: shrunken log2 fold change of peptide-encoding DNA abundance (4.5 h post-induction vs induction); higher = less antimicrobial activity (less host growth inhibition)
# Test context: time post-induction: 4.5 h; library: site-saturation at positions 5, 18, 19, 20
Parameter measured: shrunken log2 fold change

INSERT INTO measurements (item_sequence, recorded_measurement) VALUES
  ('RRIRVRPPRLPRPRPRPIRGPRP', 0.0551),
  ('RRIRVRPPRLPRPRPRPSWYPRP', -0.698),
  ('RRIRIRPPRLPRPRPRPRYMPRP', -0.114),
  ('RRIRARPPRLPRPRPRPCYFPRP', -0.324),
  ('RRIRQRPPRLPRPRPRPQHAPRP', -0.476),
  ('RRIRWRPPRLPRPRPRPGFYPRP', 0.0692),
  ('RRIRQRPPRLPRPRPRPMDVPRP', -0.0102),
  ('RRIRTRPPRLPRPRPRPCRVPRP', -0.346),
  ('RRIRRRPPRLPRPRPRPTKSPRP', 0.226),
  ('RRIRWRPPRLPRPRPRPQLHPRP', 0.123),
  ('RRIRARPPRLPRPRPRPCCIPRP', 0.13),
  ('RRIRLRPPRLPRPRPRPRAKPRP', 0.139),
  ('RRIRPRPPRLPRPRPRPNCQPRP', 0.419),
  ('RRIRHRPPRLPRPRPRPTEAPRP', -0.00626),
  ('RRIRDRPPRLPRPRPRPYKFPRP', -0.223);

###

# System: Escherichia coli TOP10;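 note: peptides expressed intracellularly from a pBAD plasmid library in pooled LB shake-flask culture, induced with 0.3% L-arabinose, DNA abundance read by NGS, three biological replicates, DESeq2 with apeglm shrinkage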
# Assay text: shrunken log2 fold change of peptide-encoding DNA abundance (4.5 h post-induction vs induction); higher = less antimicrobial activity (less host growth inhibition)
# Test context: time post-induction: 4.5 h; library: site-saturation at positions 5, 18, 19, 20
Parameter measured: shrunken log2 fold change

INSERT INTO assay_data (item_sequence, recorded_measurement) VALUES
  ('RRIRWRPPRLPRPRPRPATKPRP', 0.273),
  ('RRIRSRPPRLPRPRPRPVPSPRP', 0.391),
  ('RRIRERPPRLPRPRPRPLMEPRP', 0.0296),
  ('RRIRERPPRLPRPRPRPANMPRP', -0.19),
  ('RRIRARPPRLPRPRPRPNHRPRP', 0.00751),
  ('RRIRQRPPRLPRPRPRPNIKPRP', -0.558),
  ('RRIRQRPPRLPRPRPRPYTWPRP', -0.51),
  ('RRIRVRPPRLPRPRPRPKKGPRP', 0.13),
  ('RRIRKRPPRLPRPRPRPSGVPRP', 0.005),
  ('RRIRWRPPRLPRPRPRPVQAPRP', 0.36),
  ('RRIRNRPPRLPRPRPRPTQGPRP', 0.331),
  ('RRIRKRPPRLPRPRPRPNFMPRP', -0.117),
  ('RRIRVRPPRLPRPRPRPNTGPRP', -0.112),
  ('RRIRFRPPRLPRPRPRPDHMPRP', -0.585),
  ('RRIRVRPPRLPRPRPRPVTGPRP', -0.233),
  ('RRIRHRPPRLPRPRPRPEFQPRP', -0.0862),
  ('RRIRTRPPRLPRPRPRPINYPRP', -0.502),
  ('RRIRYRPPRLPRPRPRPGRSPRP', -0.184),
  ('RRIRTRPPRLPRPRPRPIKPPRP', -0.0369),
  ('RRIRQRPPRLPRPRPRPHSDPRP', 0.0233),
  ('RRIRVRPPRLPRPRPRPIGTPRP', -0.0334),
  ('RRIRWRPPRLPRPRPRPLMSPRP', -0.0663),
  ('RRIRDRPPRLPRPRPRPLSAPRP', 0.379),
  ('RRIRQRPPRLPRPRPRPTAKPRP', 0.151),
  ('RRIRWRPPRLPRPRPRPQKVPRP', 0.166),
  ('RRIRARPPRLPRPRPRPNRYPRP', -0.191),
  ('RRIRPRPPRLPRPRPRPAIHPRP', -0.196),
  ('RRIRNRPPRLPRPRPRPDDVPRP', -0.0233),
  ('RRIRARPPRLPRPRPRPGNMPRP', -0.0598),
  ('RRIRGRPPRLPRPRPRPTKQPRP', 0.169),
  ('RRIRLRPPRLPRPRPRPYPQPRP', -0.364),
  ('RRIRKRPPRLPRPRPRPAVCPRP', 0.356),
  ('RRIRIRPPRLPRPRPRPIGMPRP', -0.187),
  ('RRIRKRPPRLPRPRPRPAGWPRP', 0.893),
  ('RRIRPRPPRLPRPRPRPKKQPRP', -0.15),
  ('RRIRMRPPRLPRPRPRPPYSPRP', -0.0464),
  ('RRIRYRPPRLPRPRPRPLSFPRP', -1.04),
  ('RRIRFRPPRLPRPRPRPIQMPRP', -0.0945),
  ('RRIRTRPPRLPRPRPRPFHLPRP', -0.0758),
  ('RRIRGRPPRLPRPRPRPYSQPRP', -0.621),
  ('RRIRFRPPRLPRPRPRPQRIPRP', -0.695),
  ('RRIRCRPPRLPRPRPRPQNFPRP', -0.43),
  ('RRIRHRPPRLPRPRPRPNVDPRP', 0.187),
  ('RRIRVRPPRLPRPRPRPNMEPRP', -0.151),
  ('RRIRPRPPRLPRPRPRPDGYPRP', -0.246),
  ('RRIRMRPPRLPRPRPRPPYGPRP', 0.294),
  ('RRIRYRPPRLPRPRPRPLTSPRP', -0.853),
  ('RRIRDRPPRLPRPRPRPQRHPRP', 0.0682),
  ('RRIRSRPPRLPRPRPRPTMKPRP', -0.128),
  ('RRIRHRPPRLPRPRPRPAATPRP', 0.292),
  ('RRIRRRPPRLPRPRPRPPSMPRP', 0.426),
  ('RRIRIRPPRLPRPRPRPCYIPRP', -0.27),
  ('RRIRHRPPRLPRPRPRPDPGPRP', -0.199),
  ('RRIRPRPPRLPRPRPRPQEPPRP', 0.265),
  ('RRIRNRPPRLPRPRPRPVISPRP', 0.156),
  ('RRIRRRPPRLPRPRPRPGCFPRP', 0.5),
  ('RRIRRRPPRLPRPRPRPEPQPRP', 1.03),
  ('RRIRPRPPRLPRPRPRPVQPPRP', 0.000272),
  ('RRIRTRPPRLPRPRPRPPRVPRP', 0.334),
  ('RRIRQRPPRLPRPRPRPRWQPRP', 0.0759),
  ('RRIRIRPPRLPRPRPRPMHSPRP', -0.0586),
  ('RRIRIRPPRLPRPRPRPVFAPRP', 0.0576),
  ('RRIRNRPPRLPRPRPRPNLMPRP', -0.733);
